# measured_target: adrenergic α1 receptor
# assay_name: adrenergic α1 receptor binding test ([3H] Prazosin Binding Test)
# Set-up: species or system SD rats
# condition_context: 1 nM [3H] Prazosin, rat cortex, room temperature, 60 minutes
pKi: −log10 of the molar value.
Reported pKi is given for each of the following molecules.

CCCC(F)c1cc(N2CCN(CC)CC2)cc(-c2ccccc2C)c1F (stereo not drawn)    < 6.00
CCN1CCN(c2cc(COCc3ccccc3)c(Cl)c(-c3ccccc3C)c2)CC1    < 6.00
CCCS(=O)(=O)Nc1cc(N2CCN(CC)CC2)cc(-c2ccccc2CC)c1Cl    < 6.00
CCCCS(=O)(=O)c1cc(N2CCN(CC)CC2)cc(-c2ccccc2)c1OC    < 6.00
CCCCS(=O)(=O)Nc1cc(N2CCN(CC)CC2)cc(-c2ccccc2Cl)c1Cl    7.06

Note: attention shifts to another entry.
Please give the documented pKi of CCS(=O)(=O)c1cc(N2CCN(CCc3ccccn3)CC2)cc(-c2ccc(F)cc2)c1OC 7.20
